Item-by-item account of remaining activity at 10 µM
- SYSTEM TESTED: rhIDO (recombinant human IDO) (Homo sapiens, UniProt P14902)
- Sequence (P14902 whole entry): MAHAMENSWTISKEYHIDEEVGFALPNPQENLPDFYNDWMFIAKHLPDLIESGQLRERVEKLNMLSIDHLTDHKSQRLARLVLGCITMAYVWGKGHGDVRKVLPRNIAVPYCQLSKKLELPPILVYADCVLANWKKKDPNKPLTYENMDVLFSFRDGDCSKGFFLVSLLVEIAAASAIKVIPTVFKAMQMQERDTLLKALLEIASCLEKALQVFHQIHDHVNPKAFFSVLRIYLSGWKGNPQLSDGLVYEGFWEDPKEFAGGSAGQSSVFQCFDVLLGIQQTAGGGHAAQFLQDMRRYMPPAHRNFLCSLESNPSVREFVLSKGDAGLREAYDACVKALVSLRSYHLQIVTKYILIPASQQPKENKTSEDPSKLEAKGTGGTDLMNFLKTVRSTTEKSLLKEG
- ASSAY PROCEDURE: Enzyme assay using rhIDO (rate of kynurenine production)
- Format: biochemical
- SETUP CONDITIONS: 2 h; final concentration of the compound 10 μM; rate relative to reaction without compound; read-out: rhIDO-mediated kynurenine production
Structures can show the parent of a compound that is named as a salt.
RECORDED METRIC: remaining activity at 10 µM

[
  {
    "COMPOUND": "N=C(N)SCc1cc(Br)ccc1C(=O)NCC1CCCCC1 [Compound 74, hydrobromide]",
    "ASSAY RESULT": "70%"
  },
  {
    "COMPOUND": "Fc1ccc(CSC2=NCN(Cc3ccc(F)c(Cl)c3)CN2)c(CSC2=NCN(Cc3ccc(F)c(Cl)c3)CN2)c1 [Compound 146]",
    "ASSAY RESULT": "54%"
  },
  {
    "COMPOUND": "COc1cccc(CNC(=O)c2ccc(Br)cc2CSC(=N)N)c1 [Compound 105, hydrobromide]",
    "ASSAY RESULT": "98%"
  },
  {
    "COMPOUND": "COc1ccc(CCN2CN=C(SCc3ccc(Br)cc3CSC3=NCN(CCc4ccc(OC)cc4)CN3)NC2)cc1 [Compound 148]",
    "ASSAY RESULT": "13%"
  }
]

* * *

The following compounds are shown together with reported remaining activity at 10 µM values.
- SYSTEM TESTED: TDO in A172 cells (Homo sapiens, UniProt P48775)
- Construct: endogenous in cells; host or cells: A172 cells
- Sequence (P48775 whole entry): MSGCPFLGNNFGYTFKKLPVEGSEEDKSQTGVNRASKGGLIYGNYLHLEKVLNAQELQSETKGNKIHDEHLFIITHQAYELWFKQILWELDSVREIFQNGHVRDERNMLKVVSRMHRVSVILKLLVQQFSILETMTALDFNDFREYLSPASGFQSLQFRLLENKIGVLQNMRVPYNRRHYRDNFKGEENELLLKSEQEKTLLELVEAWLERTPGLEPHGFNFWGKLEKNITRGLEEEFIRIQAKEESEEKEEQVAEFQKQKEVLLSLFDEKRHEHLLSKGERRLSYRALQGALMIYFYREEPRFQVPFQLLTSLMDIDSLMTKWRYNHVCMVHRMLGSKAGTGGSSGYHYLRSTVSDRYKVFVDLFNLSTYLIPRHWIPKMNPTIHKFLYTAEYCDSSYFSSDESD
- ASSAY PROCEDURE: TDO cell-based assay, kynurenine production in A172 cells
- SETUP CONDITIONS: A 172; final concentration of the compound 10 μM; rate relative to culture without compound
Where a name gives a salt, the structure may show the parent alone.

[
  {
    "COMPOUND": "Clc1ccc(CCN2CN=C(SCc3ccccc3CSC3=NCN(CCc4ccc(Cl)cc4Cl)CN3)NC2)c(Cl)c1",
    "remaining activity at 10 µM / %": -1
  },
  {
    "COMPOUND": "Brc1ccc(CSC2=NCN(CC3CC3)CN2)c(CSC2=NCN(CC3CC3)CN2)c1",
    "remaining activity at 10 µM / %": 3
  },
  {
    "COMPOUND": "Clc1cc(CSC2=NCN(CC3CCCCC3)CN2)c(CSC2=NCN(CC3CCCCC3)CN2)cc1Cl",
    "remaining activity at 10 µM / %": 4
  },
  {
    "COMPOUND": "COc1ccc(CSC(=N)N)c(CSC(=N)N)c1 [Compound 35, dihydrobromide]",
    "remaining activity at 10 µM / %": 0
  },
  {
    "COMPOUND": "N/C(=N\\c1cccc(Cl)c1)SCc1cc(Cl)c(Cl)cc1CS/C(N)=N/c1cccc(Cl)c1 [Compound 125, dihydrobromide]",
    "remaining activity at 10 µM / %": 3
  },
  {
    "COMPOUND": "N=C(N)SCc1ccccc1CC(=O)NCCc1ccccc1 [Compound 64, hydrobromide]",
    "remaining activity at 10 µM / %": 76
  },
  {
    "COMPOUND": "COC(=O)c1c(CSC(=N)N)[nH]c2ccccc12 [Compound 32, hydrobromide]",
    "remaining activity at 10 µM / %": 52
  },
  {
    "COMPOUND": "N=C(N)SCc1ccc2ccccc2c1CSC(=N)N [Compound 3, dihydrobromide]",
    "remaining activity at 10 µM / %": 78
  },
  {
    "COMPOUND": "N=C(N)SCc1ccc(C(F)(F)F)cc1CSC(=N)N [Compound 46, dihydrobromide]",
    "remaining activity at 10 µM / %": 24
  },
  {
    "COMPOUND": "N=C(N)SCc1ccccc1CC(=O)NCCCCc1ccccc1 [Compound 72, hydrobromide]",
    "remaining activity at 10 µM / %": 68
  },
  {
    "COMPOUND": "Br.Br.N=C(N)SCc1cscc1CSC(=N)N [Compound 15, dihydrobromide]",
    "remaining activity at 10 µM / %": 7
  },
  {
    "COMPOUND": "N=C(N)SCc1cc(Br)ccc1C(=O)NCc1ccc(Cl)cc1 [Compound 82, hydrobromide]",
    "remaining activity at 10 µM / %": 37
  },
  {
    "COMPOUND": "Cc1ccc(CSC(=N)N)c(CSC(=N)N)c1 [Compound 12, dihydrobromide]",
    "remaining activity at 10 µM / %": 0
  },
  {
    "COMPOUND": "Clc1ccc(CCN2CN=C(SCc3ccc(Br)cc3CSC3=NCN(CCc4ccc(Cl)c(Cl)c4)CN3)NC2)cc1Cl",
    "remaining activity at 10 µM / %": 7
  },
  {
    "COMPOUND": "FC(F)(F)c1ccc(CCN2CN=C(SCc3ccc(Br)cc3CSC3=NCN(CCc4ccc(C(F)(F)F)cc4)CN3)NC2)cc1",
    "remaining activity at 10 µM / %": 11
  },
  {
    "COMPOUND": "N=C(N)SCc1cc(Br)ccc1C(=O)NCCc1ccc(Cl)cc1 [Compound 78, hydrobromide]",
    "remaining activity at 10 µM / %": 56
  }
]

* * *

- SYSTEM TESTED: IDO in A431 cells (Homo sapiens, UniProt P14902)
- Construct: endogenous in cells; host or cells: A431 cells, IFN-γ stimulated
- ASSAY PROCEDURE: IDO cell-based assay, kynurenine production in IFN-γ stimulated A431 cells
- SETUP CONDITIONS: A-431, 24 h; final concentration of the compound 10 μM; rate relative to culture without compound
Where a name gives a salt, the structure may show the parent alone.
Rule: remaining activity at 10 µM below 4% gives met, anything at or above gives not met.

[
  {
    "COMPOUND": "FC(F)(F)c1cccc(CCN2CN=C(SCc3cc(Cl)c(Cl)cc3CSC3=NCN(CCc4cccc(C(F)(F)F)c4)CN3)NC2)c1",
    "CATEGORY LABEL": "not met"
  },
  {
    "COMPOUND": "Clc1cc(CSC2=NCN(CCC3CCCCC3)CN2)c(CSC2=NCN(CCC3CCCCC3)CN2)cc1Cl",
    "CATEGORY LABEL": "met"
  },
  {
    "COMPOUND": "Fc1ccc(CSC2=NCN(CC3CCCCC3)CN2)c(CSC2=NCN(CC3CCCCC3)CN2)c1",
    "CATEGORY LABEL": "not met"
  },
  {
    "COMPOUND": "Clc1ccc(CCN2CN=C(SCc3cc(Cl)c(Cl)cc3CSC3=NCN(CCc4ccc(Cl)c(Cl)c4)CN3)NC2)cc1Cl",
    "CATEGORY LABEL": "met"
  },
  {
    "COMPOUND": "N=C(N)SCc1cccnc1CSC(=N)N [Compound 34, dihydrobromide]",
    "CATEGORY LABEL": "not met"
  },
  {
    "COMPOUND": "CNC(=O)Cc1ccccc1CS/C(N)=N/c1ccc(F)c(Cl)c1 [Compound 80, hydrobromide]",
    "CATEGORY LABEL": "not met"
  }
]

* * *

- SYSTEM TESTED: rhIDO (recombinant human IDO) (Homo sapiens)
- ASSAY PROCEDURE: Enzyme assay using rhIDO (rate of kynurenine production)
- Type: biochemical
- SETUP CONDITIONS: 2 h; final concentration of the compound 10 μM; rate relative to reaction without compound; read-out: rhIDO-mediated kynurenine production
Where a name gives a salt, the structure may show the parent alone.
RECORDED METRIC: remaining activity at 10 µM (%)

[
  {
    "COMPOUND": "Clc1ccc(CCN2CN=C(SCc3ccccc3CSC3=NCN(CCc4ccc(Cl)c(Cl)c4)CN3)NC2)cc1Cl [Compound 22]",
    "UNIT TEXT": "%",
    "QUALIFIER": "=",
    "ASSAY RESULT": 20
  },
  {
    "COMPOUND": "N=C(N)SCc1ccc(Br)cc1C(=O)NCc1ccc(Br)cc1 [Compound 117, hydrobromide]",
    "UNIT TEXT": "%",
    "QUALIFIER": "=",
    "ASSAY RESULT": 2
  },
  {
    "COMPOUND": "N#Cc1ccc(CNC(=O)c2cc(Br)ccc2CS/C(N)=N/c2ccc(F)c(Cl)c2)cc1 [Compound 118, hydrobromide]",
    "UNIT TEXT": "%",
    "QUALIFIER": "=",
    "ASSAY RESULT": 15
  },
  {
    "COMPOUND": "Clc1cc(CSC2=NCN(CCc3ccccc3)CN2)c(CSC2=NCN(CCc3ccccc3)CN2)cc1Cl [Compound 37]",
    "UNIT TEXT": "%",
    "QUALIFIER": "<",
    "ASSAY RESULT": 9
  },
  {
    "COMPOUND": "Clc1ccc(CCN2CN=C(SCc3ccccc3CSC3=NCN(CCc4ccc(Cl)cc4Cl)CN3)NC2)c(Cl)c1 [Compound 21]",
    "UNIT TEXT": "%",
    "QUALIFIER": "=",
    "ASSAY RESULT": 30
  },
  {
    "COMPOUND": "c1csc(CCN2CN=C(SCc3ccccc3CSC3=NCN(CCc4cccs4)CN3)NC2)c1 [Compound 40]",
    "UNIT TEXT": "%",
    "QUALIFIER": "=",
    "ASSAY RESULT": 34
  },
  {
    "COMPOUND": "N/C(=N\\c1ccc(F)c(Cl)c1)SCc1cc(Cl)c(Cl)cc1CS/C(N)=N/c1ccc(F)c(Cl)c1 [Compound 134, dihydrobromide]",
    "UNIT TEXT": "%",
    "QUALIFIER": "=",
    "ASSAY RESULT": -2
  }
]

Attribution: patent US12209079B2
